# aptazyme ON/OFF ratio values compiled below
B1: Pistol ribozyme (parent)
chain: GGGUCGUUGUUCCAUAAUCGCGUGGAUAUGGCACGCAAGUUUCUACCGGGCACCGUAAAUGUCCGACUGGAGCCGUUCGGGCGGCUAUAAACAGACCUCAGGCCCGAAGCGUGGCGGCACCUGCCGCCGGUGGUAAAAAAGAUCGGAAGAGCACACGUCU

- Variants of: B1
- assay.protocol: aptazyme ON/OFF ratio, guanine; higher = stronger switching; co-transcriptional cleavage with and without guanine
Respond using a number only.

>>> df
                               var  experimental_value
0  U7C U8G G9C U10G U11A C12A C13G                1.21
1                        U11C C12A                1.43
2      U7C U8A U10C U11A C12U C13A                1.16
3  U7C U8A G9U U10A U11G C12A C13G                1.15
4            U7G U8A G9A U11C C12U                1.18

Give aptazyme ON/OFF ratio for the following variant: U7G U8A G9C C12U
1.04

Assign aptazyme ON/OFF ratio to the following record: U7G U8A G9C U10G U11G C12G C13G
1.05

Kindly indicate its recorded aptazyme ON/OFF ratio. Item: U7A U8A U10G U11C C12G C13U
1.39

Please report aptazyme ON/OFF ratio for the following variant: U8G U10G U11C C12A C13U
1.09

// Input: U7C G9A U10A U11C C12A . Output its aptazyme ON/OFF ratio only.
1.13

Give the reported value of aptazyme ON/OFF ratio for this record: U7G U8C U10A U11A C13G
1.18

Tell me its aptazyme ON/OFF ratio given U7A G9A U10G U11A C12U C13U as the entry.
1.17

Give the reported value of aptazyme ON/OFF ratio for this record: U7C U8A G9A U10C U11C C12U C13U
1.04

Given U8C G9U U10C U11G , respond with its aptazyme ON/OFF ratio.
1.33

Determine its reported aptazyme ON/OFF ratio: U7A U8C G9A U10G C12G C13A
1.27

Given U7A U8A G9C U10A U11A C12U , respond with its aptazyme ON/OFF ratio.
1.19

Output aptazyme ON/OFF ratio of U7G G9A U10G U11G C12U
1.16
